B1: library; a variant is named by its letters at N, in order (parent)
chain: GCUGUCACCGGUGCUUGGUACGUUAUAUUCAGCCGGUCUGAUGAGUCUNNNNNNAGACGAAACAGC

Variants of: B1
Experiment: normalized RNA/DNA level without ligand (relative to sTRSVctl = 100) (log10 (% of sTRSVctl)); HEK293T overexpressing SLC46A1; higher = less ribozyme self-cleavage, higher mRNA level
Conditions: without (6R,S)-folinic acid; ligand present: no
Outcome label depends on normalized RNA/DNA level without ligand (log10) relative to 2: at/above gives label 1, below gives label 0.

[
  {
    "mutation-list": "AAAGGG",
    "group-label": "label 0"
  },
  {
    "mutation-list": "GGCUGU",
    "group-label": "label 1"
  },
  {
    "mutation-list": "GCAGUG",
    "group-label": "label 0"
  },
  {
    "mutation-list": "GGCCUU",
    "group-label": "label 1"
  },
  {
    "mutation-list": "UGGAAC",
    "group-label": "label 0"
  },
  {
    "mutation-list": "UUUAAA",
    "group-label": "label 0"
  },
  {
    "mutation-list": "CGAGCC",
    "group-label": "label 1"
  },
  {
    "mutation-list": "CGUCCU",
    "group-label": "label 1"
  },
  {
    "mutation-list": "GUUGGG",
    "group-label": "label 0"
  },
  {
    "mutation-list": "GCACAG",
    "group-label": "label 0"
  },
  {
    "mutation-list": "AGUGAG",
    "group-label": "label 0"
  },
  {
    "mutation-list": "CCCUAC",
    "group-label": "label 1"
  },
  {
    "mutation-list": "CGCGUC",
    "group-label": "label 1"
  },
  {
    "mutation-list": "GUCAGG",
    "group-label": "label 0"
  },
  {
    "mutation-list": "GUAGAG",
    "group-label": "label 0"
  },
  {
    "mutation-list": "AUAGAU",
    "group-label": "label 0"
  },
  {
    "mutation-list": "UGUGUU",
    "group-label": "label 0"
  },
  {
    "mutation-list": "ACUAUC",
    "group-label": "label 1"
  },
  {
    "mutation-list": "UACGUG",
    "group-label": "label 0"
  },
  {
    "mutation-list": "AACGCC",
    "group-label": "label 1"
  },
  {
    "mutation-list": "AGCGGC",
    "group-label": "label 1"
  }
]
